System: JHU-022 (Oral Cavity Carcinoma)
assaySummary: Bliss excess, mean over the matrix (fraction); higher = more synergy
assayMetric: Bliss excess
Quick one: just the number, no unit, thanks!

1. Cc1cc2ncnn2cc1Nc1ncc2c(n1)n(C1CCOCC1)c(=O)n2C [AZD7648] + C[C@@H]1COCCN1C2=NC(=NC(=C2)C3(CC3)[S@](=N)(=O)C)C4=C5C=CNC5=NC=C4 [AZD6738] (first compound max 10 µM, 7x7, partner max 10 µM)
0.0105

Continue with the next compound.
Please list Bliss excess recorded for the compound C[C@@H](Oc1cc(-c2cnn(C3CCNCC3)c2)cnc1N)c1c(Cl)ccc(F)c1Cl [Crizotinib] + Cn1cnc2c(F)c(Nc3ccc(Br)cc3Cl)c(C(=O)NOCCO)cc21 [Selumetinib] (first compound max 10 µM, 7x7, partner max 10 µM) -0.0115

---

System: NCI-H841 (Small Cell Lung Carcinoma)
assaySummary: Bliss excess, mean over the matrix (fraction); higher = more synergy
Measured Bliss excess, listed per entry for reference.
Quick one: just the number, no unit, thanks!

Field: example entries. Status: answers known.
1) CC1(C)CCC(CN2CCN(c3ccc(C(=O)NS(=O)(=O)c4ccc(NCC5CCOCC5)c([N+](=O)[O-])c4)c(Oc4cnc5[nH]ccc5c4)c3)CC2)=C(c2ccc(Cl)cc2)C1 [Venetoclax] + CS(=O)(=O)CCNCc1ccc(-c2ccc3ncnc(Nc4ccc(OCc5cccc(F)c5)c(Cl)c4)c3c2)o1 [Lapatinib] (first compound max 1 µM, 7x7, partner max 10 µM)
-0.0506
2) Cn1cnc2c(F)c(Nc3ccc(Br)cc3Cl)c(C(=O)NOCCO)cc21 [Selumetinib] + C[C@@H]1COCCN1C2=NC(=NC(=C2)C3(CC3)[S@](=N)(=O)C)C4=C5C=CNC5=NC=C4 [AZD6738] (first compound max 10 µM, 7x7, partner max 10 µM)
-0.0212

Continue with the next compound.
Please list Bliss excess recorded for the compound Cc1nc(-c2cn3c(n2)-c2ccc(-c4cnn(C(C)(C)C(N)=O)c4)cc2OCC3)n(C(C)C)n1 [Taselisib] + O=C(Nc1ccc2[nH]nc(-c3ccncc3)c2c1)[C@@H]1CCN(CC(=O)N2CCN(c3ccc(-c4ncccn4)cc3)CC2)C1 [SCH772984] (first compound max 10 µM, 7x7, partner max 5 µM) 0.0606

---

System: HCC1395 (Breast Carcinoma)
assaySummary: combination Emax (second highest fraction inhibited in the dose matrix, 72 h); higher = more inhibition; extreme values may be limits of the assay
Measured combination Emax, listed per entry for reference.
Quick one: just the number, no unit, thanks!

1) COc1cccc(OCCCN)c1-c1cc(Nc2cnc(C#N)cn2)n[nH]1 [Prexasertib] + CN(C)CCCOc1ccc(-c2ccc3ncc4c(c3c2)n(C2CCOCC2)c(=O)n4C)cn1 [AZD0156] (first compound max 1 µM, 7x7, partner max 1 µM)
0.857

Please list combination Emax recorded for the molecule C[C@@H]1COCCN1c1cc(C2([S@](C)(=N)=O)CC2)nc(-c2ccnc3[nH]ccc23)n1 [AZD6738] + O=C(c1cc(Cc2n[nH]c(=O)c3ccccc23)ccc1F)N1CCN(C(=O)C2CC2)CC1 [Olaparib] (first compound max 10 µM, 7x7, partner max 10 µM) 0.852

Please list combination Emax recorded for the molecule CN(CCO)CC[C@H](CSc1ccccc1)Nc1ccc(S(=O)(=O)NC(=O)c2ccc(N3CCC([C@@H](O)c4ccccc4-c4ccc(Cl)cc4)CC3)cc2)cc1S(=O)(=O)C(F)(F)F [AZD4320] + C[C@@H](Nc1cc(F)cc(F)c1)c1cc(C(=O)N(C)C)cc2c(=O)cc(N3CCOCC3)oc12 [AZD8186] (first compound max 1 µM, 7x7, partner max 3 µM) 0.476

Please list combination Emax recorded for the molecule CN(CCO)CC[C@H](CSc1ccccc1)Nc1ccc(S(=O)(=O)NC(=O)c2ccc(N3CCC([C@@H](O)c4ccccc4-c4ccc(Cl)cc4)CC3)cc2)cc1S(=O)(=O)C(F)(F)F [AZD4320] + CCN(CCO)CCCOc1ccc2c(Nc3cc(CC(=O)Nc4cccc(F)c4)[nH]n3)ncnc2c1 [AZD2811] (first compound max 1 µM, 7x7, partner max 1 µM) 0.309

Please list combination Emax recorded for the molecule COc1cccc(OCCCN)c1-c1cc(Nc2cnc(C#N)cn2)n[nH]1 [Prexasertib] + C=CCn1c(=O)c2cnc(Nc3ccc(N4CCN(C)CC4)cc3)nc2n1-c1cccc(C(C)(C)O)n1 [AZD1775] (first compound max 1 µM, partner max 1 µM) 0.903

Please list combination Emax recorded for the molecule NC1(C(=O)N[C@@H](CCO)c2ccc(Cl)cc2)CCN(c2ncnc3[nH]ccc23)CC1 [Capivasertib] + CCN(CCO)CCCOc1ccc2c(Nc3cc(CC(=O)Nc4cccc(F)c4)[nH]n3)ncnc2c1 [AZD2811] (first compound max 10 µM, 7x7, partner max 1 µM) 0.455

Please list combination Emax recorded for the molecule Cc1cc2ncnn2cc1Nc1ncc2c(n1)n(C1CCOCC1)c(=O)n2C [AZD7648] + C=CCn1c(=O)c2cnc(Nc3ccc(N4CCN(C)CC4)cc3)nc2n1-c1cccc(C(C)(C)O)n1 [AZD1775] (first compound max 10 µM, partner max 1 µM) 0.594

Please list combination Emax recorded for the molecule Cc1c2c(nn1C)CSCc1cc(n(C)n1)CSc1cc(c3ccccc3c1)OCCCc1c(C(=O)O)n(C)c3c-2c(Cl)ccc13 [AZD5991] + CN(C)CCCOc1ccc(-c2ccc3ncc4c(c3c2)n(C2CCOCC2)c(=O)n4C)cn1 [AZD0156] (first compound max 1 µM, 7x7, partner max 1 µM) 0.537

Please list combination Emax recorded for the molecule Cc1c2c(nn1C)CSCc1cc(n(C)n1)CSc1cc(c3ccccc3c1)OCCCc1c(C(=O)O)n(C)c3c-2c(Cl)ccc13 [AZD5991] + C[C@@H]1COCCN1C2=NC(=NC(=C2)C3(CC3)[S@](=N)(=O)C)C4=C5C=CNC5=NC=C4 [AZD6738] (first compound max 1 µM, 7x7, partner max 10 µM) 0.918

---

Tested on: GCT (Other Solid Carcinomas)
assaySummary: Bliss excess, mean over the matrix (fraction); higher = more synergy
Measured Bliss excess, listed per entry for reference.
Quick one: just the number, no unit, thanks!

Field: example entries. Status: answers known.
1) Cc1c2c(nn1C)CSCc1cc(n(C)n1)CSc1cc(c3ccccc3c1)OCCCc1c(C(=O)O)n(C)c3c-2c(Cl)ccc13 [AZD5991] + Cc1cc2ncnn2cc1Nc1ncc2c(n1)n(C1CCOCC1)c(=O)n2C [AZD7648] (first compound max 1 µM, 7x7, partner max 10 µM)
-0.0702
2) CN(CCO)CC[C@H](CSc1ccccc1)Nc1ccc(S(=O)(=O)NC(=O)c2ccc(N3CCC([C@@H](O)c4ccccc4-c4ccc(Cl)cc4)CC3)cc2)cc1S(=O)(=O)C(F)(F)F [AZD4320] + CN(C)CCCOc1ccc(-c2ccc3ncc4c(c3c2)n(C2CCOCC2)c(=O)n4C)cn1 [AZD0156] (first compound max 1 µM, 7x7, partner max 1 µM)
-0.0401

Report Bliss excess on GCT (Other Solid Carcinomas) for this entry: Cn1cnc2c(F)c(Nc3ccc(Br)cc3Cl)c(C(=O)NOCCO)cc21 [Selumetinib] + C=CCn1c(=O)c2cnc(Nc3ccc(N4CCN(C)CC4)cc3)nc2n1-c1cccc(C(C)(C)O)n1 [AZD1775] (first compound max 10 µM, partner max 1 µM) -0.0074

---

Test system: CA46 (Burkitt's Lymphoma)
assaySummary: combination Emax (second highest fraction inhibited in the dose matrix, 72 h); higher = more inhibition; extreme values may be limits of the assay
assayMetric: combination Emax
Quick one: just the number, no unit, thanks!

Field: example entries. Status: answers known.
1) Cc1c2c(nn1C)CSCc1cc(n(C)n1)CSc1cc(c3ccccc3c1)OCCCc1c(C(=O)O)n(C)c3c-2c(Cl)ccc13 [AZD5991] + Cn1cnc2c(F)c(Nc3ccc(Br)cc3Cl)c(C(=O)NOCCO)cc21 [Selumetinib] (first compound max 1 µM, 7x7, partner max 3 µM)
0.0912
2) CN(CCO)CC[C@H](CSc1ccccc1)Nc1ccc(S(=O)(=O)NC(=O)c2ccc(N3CCC([C@@H](O)c4ccccc4-c4ccc(Cl)cc4)CC3)cc2)cc1S(=O)(=O)C(F)(F)F [AZD4320] + CN(C)CCCOc1ccc(-c2ccc3ncc4c(c3c2)n(C2CCOCC2)c(=O)n4C)cn1 [AZD0156] (first compound max 1 µM, 7x7, partner max 1 µM)
0.349

Continue with the next compound.
Please list combination Emax recorded for the compound CC(=O)c1c(C)c2cnc(Nc3ccc(N4CCNCC4)cn3)nc2n(C2CCCC2)c1=O [Palbociclib] + Cc1c2c(nn1C)CSCc1cc(n(C)n1)CSc1cc(c3ccccc3c1)OCCCc1c(C(=O)O)n(C)c3c-2c(Cl)ccc13 [AZD5991] (first compound max 10 µM, 7x7, partner max 1 µM) 0.304

---

Measured combination Emax, listed per entry for reference.
Tested on: 5637 (Bladder Carcinoma)
assaySummary: combination Emax (second highest fraction inhibited in the dose matrix, 72 h); higher = more inhibition; extreme values may be limits of the assay
Quick one: just the number, no unit, thanks!

Field: example entries. Status: answers known.
1. C=CCn1c(=O)c2cnc(Nc3ccc(N4CCN(C)CC4)cc3)nc2n1-c1cccc(C(C)(C)O)n1 [AZD1775] + C[C@@H]1COCCN1C2=NC(=NC(=C2)C3(CC3)[S@](=N)(=O)C)C4=C5C=CNC5=NC=C4 [AZD6738] (first compound max 1 µM, partner max 10 µM)
0.898
2. C=CCn1c(=O)c2cnc(Nc3ccc(N4CCN(C)CC4)cc3)nc2n1-c1cccc(C(C)(C)O)n1 [AZD1775] + O=C(c1cc(Cc2n[nH]c(=O)c3ccccc23)ccc1F)N1CCN(C(=O)C2CC2)CC1 [Olaparib] (first compound max 1 µM, partner max 10 µM)
0.836
3. CC1(C)CCC(CN2CCN(c3ccc(C(=O)NS(=O)(=O)c4ccc(NCC5CCOCC5)c([N+](=O)[O-])c4)c(Oc4cnc5[nH]ccc5c4)c3)CC2)=C(c2ccc(Cl)cc2)C1 [Venetoclax] + Cc1cc2ncnn2cc1Nc1ncc2c(n1)n(C1CCOCC1)c(=O)n2C [AZD7648] (first compound max 1 µM, 7x7, partner max 10 µM)
0.251
4. COc1cccc(OCCCN)c1-c1cc(Nc2cnc(C#N)cn2)n[nH]1 [Prexasertib] + CCc1c2c(nc3ccc(O)cc13)-c1cc3c(c(=O)n1C2)COC(=O)[C@]3(O)CC [SN-38] (first compound max 1 µM, 7x7, partner max 0.3 µM)
1
5. CCN(CCO)CCCOc1ccc2c(Nc3cc(CC(=O)Nc4cccc(F)c4)[nH]n3)ncnc2c1 [AZD2811] + O=C(c1cc(Cc2n[nH]c(=O)c3ccccc23)ccc1F)N1CCN(C(=O)C2CC2)CC1 [Olaparib] (first compound max 1 µM, 7x7, partner max 10 µM)
0.622
6. COc1cccc2c1C(=O)c1c(O)c3c(c(O)c1C2=O)C[C@@](O)(C(=O)CO)C[C@@H]3O[C@H]1C[C@H](N)[C@H](O)[C@H](C)O1 [Doxorubicin] + Cc1cc2ncnn2cc1Nc1ncc2c(n1)n(C1CCOCC1)c(=O)n2C [AZD7648] (first compound max 1 µM, 7x7, partner max 10 µM)
0.546

Please list combination Emax recorded for the molecule CN(CCO)CC[C@H](CSc1ccccc1)Nc1ccc(S(=O)(=O)NC(=O)c2ccc(N3CCC([C@@H](O)c4ccccc4-c4ccc(Cl)cc4)CC3)cc2)cc1S(=O)(=O)C(F)(F)F [AZD4320] + CCN(CCO)CCCOc1ccc2c(Nc3cc(CC(=O)Nc4cccc(F)c4)[nH]n3)ncnc2c1 [AZD2811] (first compound max 1 µM, 7x7, partner max 1 µM) 0.898

Please list combination Emax recorded for the molecule NC1(C(=O)N[C@@H](CCO)c2ccc(Cl)cc2)CCN(c2ncnc3[nH]ccc23)CC1 [Capivasertib] + C[C@@H]1COCCN1C2=NC(=NC(=C2)C3(CC3)[S@](=N)(=O)C)C4=C5C=CNC5=NC=C4 [AZD6738] (first compound max 10 µM, 7x7, partner max 10 µM) 0.564

Please list combination Emax recorded for the molecule CC1(C)CCC(CN2CCN(c3ccc(C(=O)NS(=O)(=O)c4ccc(NCC5CCOCC5)c([N+](=O)[O-])c4)c(Oc4cnc5[nH]ccc5c4)c3)CC2)=C(c2ccc(Cl)cc2)C1 [Venetoclax] + C[C@@H](Nc1cc(F)cc(F)c1)c1cc(C(=O)N(C)C)cc2c(=O)cc(N3CCOCC3)oc12 [AZD8186] (first compound max 1 µM, 7x7, partner max 3 µM) 0.141

Please list combination Emax recorded for the molecule Cn1cnc2c(F)c(Nc3ccc(Br)cc3Cl)c(C(=O)NOCCO)cc21 [Selumetinib] + CC(C)n1c(=O)n(C)c2cnc3cc(F)c(-c4ccc(OCCCN5CCCCC5)nc4)cc3c21 [AZD1390] (first compound max 10 µM, 7x7, partner max 0.3 µM) 0.236

Please list combination Emax recorded for the molecule CC1(C)CCC(CN2CCN(c3ccc(C(=O)NS(=O)(=O)c4ccc(NCC5CCOCC5)c([N+](=O)[O-])c4)c(Oc4cnc5[nH]ccc5c4)c3)CC2)=C(c2ccc(Cl)cc2)C1 [Venetoclax] + C1CN(CCC1(C(=O)N[C@@H](CCO)C2=CC=C(C=C2)Cl)N)C3=NC=NC4=C3C=CN4 [Capivasertib] (first compound max 1 µM, 7x7, partner max 3 µM) 0.168

Origin of the recorded values: the supplement of paper PMC11061612
